Molecular target: HLA-B35 (human)
Experiment: assembly assay, T2-B35 cell lysate, W6/32 IP, IEF gel
assayMetric: C50

# binder, C50
measured = [
    ("EPDLAQCFF (also called Survivin51-59) [Sur51-59]", "13 µM"),
    ("LPPAWQPFL (also called Survivin6-14) [Sur6-14]", "> 100 µM"),
]

Per the record, EPDLAQCFY [Sur51Y9] has C50 of 1.5 µM

C50 recorded for this binder, TPERMAEAGF (also called Survivin34-43) [Sur34-43] , is > 100 µM

Entry under test: CPTENEPDL (also called Survivin46-54) [Sur46-54] . Its C50 was 20 µM

For reference, reported C50 for CPTENEPDY [Sur46Y9] stands at 4 µM

Origin of values: patent EP2857035B1
